Listed next: entries and their corresponding Percent Effect.
Tested on: Wolbachia pipientis
Assay: Anti-Wolbachia Cell-Based Screen
Type: functional
Design: scale not given: in the data most compounds retested in dose-response had high values
Settings: 5 µM
Out of some 48,000 compounds screened, about 13,000 (27%) showed an effect of 50% or more. This is one part of the list.

Molecule: O=C(Cc1cccs1)NCC1(O)CCSCC1
Tested On: Wolbachia pipientis
Percent Effect, %: 3.486

Molecule: CS(=O)(=O)N1CCCC(C(=O)Nc2cnn(COCC(F)(F)F)c2)C1 (stereo unspecified)
Tested On: Wolbachia pipientis
Percent Effect, %: 96.9

Molecule: COc1ccc(CN2CC[C@@]3(C2)[C@H](O)CN(C)S3(=O)=O)cc1F
Tested On: Wolbachia pipientis
Percent Effect, %: 137.9

Molecule: COC(=O)C(c1cc(F)ccc1F)N(C)C(=O)c1cnccn1 (stereo unspecified)
Tested On: Wolbachia pipientis
Percent Effect, %: 118.4

Molecule: CCS(=O)(=O)c1ccccc1N1CCC(NC(C)=O)CC1
Tested On: Wolbachia pipientis
Percent Effect, %: -10.39

Molecule: Cc1ccccc1CC(C)(C)NC(=O)COc1cccc(C(N)=O)c1
Tested On: Wolbachia pipientis
Percent Effect, %: 8.164

Molecule: CN1C[C@H](O)[C@]2(CCN(Cc3ccc(OC(F)(F)F)cc3)C2)S1(=O)=O
Tested On: Wolbachia pipientis
Percent Effect, %: 118.4

Molecule: O=C(CN1CCCC1Cn1cncn1)NCCOc1ccc(F)cc1 (stereo unspecified)
Tested On: Wolbachia pipientis
Percent Effect, %: 135.9

Molecule: N#Cc1ccc(OCCNc2cccc(C(=O)N3CCOCC3)c2)cc1
Tested On: Wolbachia pipientis
Percent Effect, %: -3.52

Molecule: CN(Cc1ccc(Cl)cc1)C(=O)Nc1cnn(CC(N)=O)c1
Tested On: Wolbachia pipientis
Percent Effect, %: 3.306

Molecule: Cc1cccc(OCCNC(=O)CN2CCCC2Cn2cncn2)c1 (stereo unspecified)
Tested On: Wolbachia pipientis
Percent Effect, %: 115.7

Molecule: Cc1cccc(N(CCC(N)=O)C(=O)c2ccnc(C)n2)c1
Tested On: Wolbachia pipientis
Percent Effect, %: -10.53

Molecule: CN1CC(=O)N(c2ccsc2)CC12CCN(S(C)(=O)=O)C2.O=C(O)C(F)(F)F (stereo unspecified)
Tested On: Wolbachia pipientis
Percent Effect, %: -22.3

Molecule: CS(=O)(=O)N1CCC(C(=O)Nc2nnc(C(F)(F)F)[nH]2)CC1
Tested On: Wolbachia pipientis
Percent Effect, %: 11.43

Molecule: O=C(CN1CCCC(Cn2cncn2)C1)NCCOc1ccccc1 (stereo unspecified)
Tested On: Wolbachia pipientis
Percent Effect, %: -8.945

Molecule: CN(Cc1ccc([S+](C)[O-])cc1)c1ccc(C(F)(F)F)cn1 (stereo unspecified)
Tested On: Wolbachia pipientis
Percent Effect, %: -27.71

Molecule: O=C(CN1CCCCC1Cn1cncn1)NCCOc1ccccc1 (stereo unspecified)
Tested On: Wolbachia pipientis
Percent Effect, %: 140

Molecule: O=S(=O)(c1cccnc1)N1CCN(CC(O)c2cccs2)CC1 (stereo unspecified)
Tested On: Wolbachia pipientis
Percent Effect, %: -0.3613

Molecule: O=C1C(Sc2cnn[nH]2)CCCN1c1ccccc1F (stereo unspecified)
Tested On: Wolbachia pipientis
Percent Effect, %: -1.507

Molecule: COc1ccc(CN2CCN(C(=O)N(C)C)[C@@H]3CS(=O)(=O)C[C@@H]32)cc1F
Tested On: Wolbachia pipientis
Percent Effect, %: -14.55

Molecule: O=C(CN1CCCC1Cn1cncn1)NC(C1CC1)C1CC1 (stereo unspecified)
Tested On: Wolbachia pipientis
Percent Effect, %: -5.289

Molecule: CCOCn1cc(NC(=O)C2CCN(S(C)(=O)=O)CC2)cn1
Tested On: Wolbachia pipientis
Percent Effect, %: 105.1

Molecule: CS(=O)(=O)N1CCC(C(=O)N2CCC(Cn3cccn3)CC2)CC1
Tested On: Wolbachia pipientis
Percent Effect, %: -10.97

Molecule: O=C(CN1CCCC1Cn1cncn1)NCCOc1ccccc1 (stereo unspecified)
Tested On: Wolbachia pipientis
Percent Effect, %: 108.3

Molecule: O=C(CN1CCCC1Cn1cncn1)Nc1cccnc1 (stereo unspecified)
Tested On: Wolbachia pipientis
Percent Effect, %: -2.58

Molecule: CCCc1nnc(NC(=O)N2CCCC2c2ccncc2)s1 (stereo unspecified)
Tested On: Wolbachia pipientis
Percent Effect, %: 3.484

Molecule: COC(=O)c1cnc(C(=O)N(c2ccc(OC)c(F)c2)C(C)C)cn1
Tested On: Wolbachia pipientis
Percent Effect, %: -7.917

Molecule: Cc1nc(CN2CC[C@@H]3[C@@H](CCC(=O)N3CCc3c[nH]cn3)C2)co1
Tested On: Wolbachia pipientis
Percent Effect, %: -20.08

Molecule: COC(=O)C(c1cc(F)ccc1F)N(C)C(=O)c1csnn1 (stereo unspecified)
Tested On: Wolbachia pipientis
Percent Effect, %: 3.05

Molecule: O=C(NCc1cccs1)NCC1(O)CCc2ccccc2C1 (stereo unspecified)
Tested On: Wolbachia pipientis
Percent Effect, %: -8.141

Molecule: Cc1c[nH]c(CN2CCC3(CCCN(Cc4ccc(F)c(F)c4)C3)C2)n1 (stereo unspecified)
Tested On: Wolbachia pipientis
Percent Effect, %: -10.55

Molecule: O=C(c1ccc(Br)s1)N1CCN(Cc2ccc(OC(F)(F)F)cc2)CC1
Tested On: Wolbachia pipientis
Percent Effect, %: -12.95

Molecule: CN(C)CCn1ccc2ccc(NC(=O)c3ccncc3F)cc21
Tested On: Wolbachia pipientis
Percent Effect, %: -14.36

Molecule: COC(=O)C(c1cc(F)ccc1F)N(C)C(=O)c1cccnc1O (stereo unspecified)
Tested On: Wolbachia pipientis
Percent Effect, %: 1.784

Molecule: CN1C[C@H](O)[C@]2(CCN(Cc3ccc(F)c(F)c3)C2)S1(=O)=O
Tested On: Wolbachia pipientis
Percent Effect, %: 108.2

Molecule: CCc1ccc(C2CCCN2C(=O)Cc2ccc(NC(C)=O)cc2)o1 (stereo unspecified)
Tested On: Wolbachia pipientis
Percent Effect, %: -1.143

Molecule: Fc1ccc(CN2CCCC3(CCN(Cc4ncc[nH]4)C3)C2)cc1F (stereo unspecified)
Tested On: Wolbachia pipientis
Percent Effect, %: 2.586

Molecule: O=C(Nc1cnn(Cc2ccc(Cl)cc2)c1)N[C@@H]1C=C[C@H](CO)C1
Tested On: Wolbachia pipientis
Percent Effect, %: -9.454

Molecule: O=C1NC2(CCN(C(=O)Cc3ccsc3)CC2)CC1c1ccccc1 (stereo unspecified)
Tested On: Wolbachia pipientis
Percent Effect, %: 6.926

Molecule: O=C(Nc1ccccc1OCC(F)F)N[C@@H]1C=C[C@H](CO)C1
Tested On: Wolbachia pipientis
Percent Effect, %: -12.74

Molecule: CCOCCCNC(=O)Cc1cccs1
Tested On: Wolbachia pipientis
Percent Effect, %: 73.09

Molecule: Cc1cc(=O)n2nc(Oc3cccc(I)c3)sc2n1
Tested On: Wolbachia pipientis
Percent Effect, %: 98.58

Molecule: CCn1cc(NC(=O)C2CCN(CCOC(C)C)CC2)cn1
Tested On: Wolbachia pipientis
Percent Effect, %: -5.388

Molecule: O=C(Cc1ccsc1)N1CCC2(CCCN(CC3CCOCC3)C2)C1 (stereo unspecified)
Tested On: Wolbachia pipientis
Percent Effect, %: -0.5355

Molecule: CCc1noc(CS(=O)(=O)c2cccc(OC)c2)n1
Tested On: Wolbachia pipientis
Percent Effect, %: -12.89

Molecule: CCOc1cc(CNCc2cnc(C)cn2)c(Cl)cc1OC(C)C
Tested On: Wolbachia pipientis
Percent Effect, %: -9.744
